observable: melting point

Worked cases, answers included:
CCOC(=O)c1nc2ccc(Cl)nn2c1C 170 to 171 °C
NC(=O)c1ccccc1NCc1ccc(Cl)cc1 138 to 139 °C

Would you kindly look at the next entry?
[ask] Query (compound): C=CCOc1ccc(C(=O)C=Cc2cc(OC)ccc2OC)cc1 ; field requested: melting point
[reply] 86 to 87 °C

---

# reported melting point; entries follow

Worked cases, answers included:
compound	observable	result
CCC(CC)C(NS(=O)(=O)c1cc(Cl)c(Cl)s1)c1ccnn1-c1ccccc1 (stereo not drawn)	melting point	116 to 120 °C
O=C(c1cccs1)c1cccc(O)c1C(=O)O	melting point	168 to 170 °C

[ask] Query (compound): CC1(C)CCOc2c(CC#Cc3ccc(C(=O)O)c(O)c3)cccc21 ; field requested: melting point
[reply] 182 to 183 °C

[ask] Query (compound): COc1ccc(N2CCN(c3c(C)c(C)c4c(c3C)C(c3cccnc3)C(C)(C)O4)CC2)cc1 (stereo not drawn) ; field requested: melting point
[reply] 159 to 161 °C

[ask] Query (compound): COC(=O)c1ccc(N2CCNC2=O)cc1 ; field requested: melting point
[reply] > 200 °C

[ask] Query (compound): O=C1NCCc2c(-c3cccc(Cl)c3)[nH]c3cccc1c23 ; field requested: melting point
[reply] 147 to 149 °C

[ask] Query (compound): CCCC1N=Cc2cc(Cl)nc(=O)n21 (stereo not drawn) ; field requested: melting point
[reply] 194 to 196 °C

[ask] Query (compound): COc1ccc(S(=O)(=O)Nc2cccnc2Nc2ccc(OC(=O)N(C)C)cc2)cc1 ; field requested: melting point
[reply] 202 to 203 °C
